Target: CDK4/D1 (Homo sapiens)
Sequence (P11802 whole entry, species assumed): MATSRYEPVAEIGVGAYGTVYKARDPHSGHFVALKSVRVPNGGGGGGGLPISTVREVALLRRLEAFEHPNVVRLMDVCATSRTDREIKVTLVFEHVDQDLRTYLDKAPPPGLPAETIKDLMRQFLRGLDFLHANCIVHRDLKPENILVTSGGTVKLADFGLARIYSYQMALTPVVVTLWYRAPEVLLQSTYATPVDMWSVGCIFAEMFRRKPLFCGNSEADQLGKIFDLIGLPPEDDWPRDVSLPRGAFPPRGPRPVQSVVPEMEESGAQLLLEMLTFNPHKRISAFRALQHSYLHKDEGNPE
Sequence (P24385 whole entry partner, species assumed): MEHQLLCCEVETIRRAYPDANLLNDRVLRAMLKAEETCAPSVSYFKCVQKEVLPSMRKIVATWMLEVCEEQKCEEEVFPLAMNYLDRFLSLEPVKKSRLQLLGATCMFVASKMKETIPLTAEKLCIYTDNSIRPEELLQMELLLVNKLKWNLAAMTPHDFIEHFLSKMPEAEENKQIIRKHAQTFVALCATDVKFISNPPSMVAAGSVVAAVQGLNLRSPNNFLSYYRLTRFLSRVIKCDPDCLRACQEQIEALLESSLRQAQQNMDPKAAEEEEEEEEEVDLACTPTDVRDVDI
Experiment: ADP Glo kinase assay, CDK4/D1
Format: biochemical
Conditions: CDK4D1; compound at 10 μM; read-out: residual enzymatic activity (%) at 10 μM
Classify by remaining activity at 10 µM. Ranges: class 0: < 50%; class 1: ≥ 50% and < 70%; class 2: ≥ 70%

Recorded results for 2 compounds are shown here.
INSERT INTO results (smiles_record, answer_label) VALUES
  ('CC(=O)N1CCCN(c2ccc(Nc3nccc(-c4cnc5ccccn45)n3)nc2)CC1', 'class 0'),
  ('CC(=O)N1CCN(c2ccc(Nc3nccc(-c4cnc5ccc(Cl)cn45)n3)nc2)CC1', 'class 0');

Class? Entry: CC(=O)N1CCN(c2ccc(Nc3nccc(-c4cnc5ccc(-c6cc7ccccc7o6)cn45)n3)nc2)CC1
class 2

Class? Entry: CC(=O)N1CCN(c2ccc(Nc3nccc(-c4cnc5ccc(-c6cnc(N)nc6)cn45)n3)nc2)CC1
class 0
